Molecular target: RNA-binding protein pos-1 (Caenorhabditis elegans)
Sequence (G5EF15 whole entry): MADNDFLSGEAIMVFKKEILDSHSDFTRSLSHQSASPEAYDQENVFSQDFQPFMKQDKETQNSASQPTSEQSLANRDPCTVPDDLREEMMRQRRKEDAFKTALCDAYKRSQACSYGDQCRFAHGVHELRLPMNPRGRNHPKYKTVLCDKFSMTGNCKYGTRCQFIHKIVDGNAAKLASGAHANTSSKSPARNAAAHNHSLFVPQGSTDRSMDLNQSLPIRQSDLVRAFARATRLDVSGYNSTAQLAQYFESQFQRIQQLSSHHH
Assay: disruptors of C. elegans POS-1 RNA interaction – biochemical, fluorescence polarization, dose response (AID 1964);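 also: purified POS-1 fused to maltose binding protein made in E. coli; potency of compounds blocking POS-1 binding to fluorescent RNA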
Entries and their EC50 values follow.
observation type: EC50

[[record]]
compound = "Cc1cccc(N2C(=O)/C(=C/c3ccc(N4CCN(C)CC4)o3)C(=O)NC2=S)c1C"
observation_type = "EC50"
recorded_value = "> 300 µM (inconclusive)"

[[record]]
compound = "CSC1=NSC2=NC(=O)/C(=C\\c3c[nH]c4ccccc34)C(=N)N12"
observation_type = "EC50"
recorded_value = "> 300 µM (inconclusive)"

[[record]]
compound = "COc1ccc(-c2nnc(-c3cc4c(ccc5ccccc54)oc3=O)o2)cc1"
observation_type = "EC50"
recorded_value = "> 300 µM (not active)"

[[record]]
compound = "COc1cc(C2C3CN(C)CC=C3C(C#N)=C(N)C2(C#N)C#N)ccc1OC(C)C (stereo not given)"
observation_type = "EC50"
recorded_value = "> 300 µM (inconclusive)"

[[record]]
compound = "O=C(N/N=C\\c1cc([N+](=O)[O-])ccc1N1CCCC1)c1ccccn1"
observation_type = "EC50"
recorded_value = "149 µM (inconclusive)"

